molecular target: Mitogen-activated protein kinase 9 (Homo sapiens); assay: Inhibition of JNK2 (unknown origin) incubated for 90 mins by ELISA
Sequence (P45984 whole entry): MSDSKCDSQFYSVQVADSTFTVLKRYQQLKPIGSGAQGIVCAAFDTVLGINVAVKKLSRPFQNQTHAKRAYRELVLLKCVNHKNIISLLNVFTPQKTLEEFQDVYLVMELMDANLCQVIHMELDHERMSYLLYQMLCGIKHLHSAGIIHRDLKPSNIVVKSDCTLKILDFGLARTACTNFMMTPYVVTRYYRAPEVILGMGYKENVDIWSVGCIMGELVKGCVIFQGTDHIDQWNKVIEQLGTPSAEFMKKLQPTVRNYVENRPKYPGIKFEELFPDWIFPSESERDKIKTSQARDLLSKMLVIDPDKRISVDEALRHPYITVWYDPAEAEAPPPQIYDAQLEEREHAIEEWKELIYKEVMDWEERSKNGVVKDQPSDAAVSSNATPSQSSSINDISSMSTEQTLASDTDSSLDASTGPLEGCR
Reported values of IC50 for individual entries

Smiles Repr | Measurement Unit | Limit Operator | IC50
COc1ccc(-c2cc(C(=O)Oc3ccc(C=O)cc3OC)nn2-c2ccc(S(N)(=O)=O)cc2)cc1 | nM | = | 900
COc1cc(C=O)ccc1OC(=O)c1cc(-c2ccc(C)cc2)n(-c2ccc(S(N)(=O)=O)cc2)n1 | nM | = | 2000
NS(=O)(=O)c1ccc(NC(=O)c2cc(-c3ccc(Cl)cc3)n(-c3ccccc3)n2)cc1 | nM | = | 3000
CS(=O)(=O)c1ccc(NC(=O)c2cc(-c3ccc(Cl)cc3)n(-c3ccccc3)n2)cc1 | nM | > | 200000
Cc1ccc(-c2cc(C(=O)Nc3ccc(S(C)(=O)=O)cc3)nn2-c2ccccc2)cc1 | nM | > | 200000

---

Below, each entry is listed with its recorded inhibition of growth at 100 µM.
test: Growth inhibition of human SUIT-2 cells at 100 uM by WST-8 assay relative to control; format: functional; details: read-out: GI
Readout Label: inhibition of growth at 100 µM (%)

Compound | Reading
NS(=O)(=O)c1ccc(NC(=O)c2cc(-c3ccccc3)n(-c3ccccc3)n2)cc1 | 91
CS(=O)(=O)c1ccc(NC(=O)c2cc(-c3ccccc3)n(-c3ccccc3)n2)cc1 | 86
COc1cc(C=O)ccc1OC(=O)c1cc(-c2ccc(C)cc2)n(-c2ccccc2)n1 | 89
COc1ccc(-c2cc(C(=O)Oc3ccc(C=O)cc3OC)nn2-c2ccc(S(N)(=O)=O)cc2)cc1OC | 66
COc1ccc(-c2cc(C(=O)Nc3ccc(S(C)(=O)=O)cc3)nn2-c2ccccc2)cc1OC | 89
COc1cc(C=O)ccc1OC(=O)c1cc(-c2ccc(Cl)cc2)n(-c2ccccc2)n1 | 92
Cc1ccc(-c2cc(C(=O)Nc3ccc(S(N)(=O)=O)cc3)nn2-c2ccccc2)cc1 | 96
COc1ccc(-c2cc(C(=O)Oc3ccc(C=O)cc3OC)nn2-c2ccccc2)cc1OC | 86
COc1cc(C=O)ccc1OC(=O)c1cc(-c2ccccc2)n(-c2ccccc2)n1 | 91
COc1ccc(-c2cc(C(=O)Oc3ccc(C=O)cc3OC)nn2-c2ccccc2)cc1 | 91
COc1cc(C=O)ccc1OC(=O)c1cc(-c2ccc(Cl)cc2)n(-c2ccc(S(N)(=O)=O)cc2)n1 | 94
COc1ccc(-c2cc(C(=O)Nc3ccc(S(C)(=O)=O)cc3)nn2-c2ccccc2)cc1 | 90
CS(=O)(=O)c1ccc(NC(=O)c2cc(-c3ccc(Cl)cc3)n(-c3ccccc3)n2)cc1 | 94
COc1ccc(-c2cc(C(=O)Oc3ccc(C=O)cc3OC)nn2-c2ccc(S(N)(=O)=O)cc2)cc1 | 95
COc1cc(C=O)ccc1OC(=O)c1cc(-c2ccccc2)n(-c2ccc(S(N)(=O)=O)cc2)n1 | 95
COc1cccc2c1C(=O)c1c(O)c3c(c(O)c1C2=O)C[C@@](O)(C(C)=O)C[C@@H]3O[C@H]1C[C@H](N)[C@H](O)[C@H](C)O1 [DAUNORUBICIN] | 92
COc1cc(C=O)ccc1OC(=O)c1cc(-c2ccc(C)cc2)n(-c2ccc(S(N)(=O)=O)cc2)n1 | 87
NS(=O)(=O)c1ccc(NC(=O)c2cc(-c3ccc(Cl)cc3)n(-c3ccccc3)n2)cc1 | 99

---

assay: Antiproliferative activity against human SUIT-2 cells by WST-8 assay; format: functional, cell-based
pIC50: −log10 of the molar value.

Smiles Repr | pIC50
NS(=O)(=O)c1ccc(NC(=O)c2cc(-c3ccccc3)n(-c3ccccc3)n2)cc1 | 4.74
Cc1ccc(-c2cc(C(=O)Nc3ccc(S(N)(=O)=O)cc3)nn2-c2ccccc2)cc1 | 4.89
COc1cc(C=O)ccc1OC(=O)c1cc(-c2ccc(Cl)cc2)n(-c2ccc(S(N)(=O)=O)cc2)n1 | 4.30
NS(=O)(=O)c1ccc(NC(=O)c2cc(-c3ccc(Cl)cc3)n(-c3ccccc3)n2)cc1 | 4.30
